SYSTEM_TESTED: LH release from rat pituitary cells (Rattus norvegicus)
Sequence (P30969 whole entry): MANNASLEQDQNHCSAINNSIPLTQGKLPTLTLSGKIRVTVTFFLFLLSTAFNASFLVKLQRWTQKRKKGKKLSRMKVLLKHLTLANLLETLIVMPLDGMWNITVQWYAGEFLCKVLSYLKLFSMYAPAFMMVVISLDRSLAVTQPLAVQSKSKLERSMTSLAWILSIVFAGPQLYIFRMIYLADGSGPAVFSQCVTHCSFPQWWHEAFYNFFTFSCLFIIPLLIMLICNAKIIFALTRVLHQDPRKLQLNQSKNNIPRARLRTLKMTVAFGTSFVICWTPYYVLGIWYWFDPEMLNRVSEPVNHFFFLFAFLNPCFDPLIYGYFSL
PROTOCOL_DETAILS: in vitro inhibition of LH release from rat pituitary cells (pA2, vs agonist leuprolide)
Type: cell-based
CONDITION_DESCRIPTION: negative logarithm of antagonist concentration required to shift the response curve produced by agonist leuprolide to two-fold higher concentration
Where a SMILES comes first, the peptide text is derived from it. [ ]: non-standard residue; d: D form. The star is where a group is joined. Propanoyl(3-(4-F-phenyl)) = O=C(CCc1ccc(F)cc1)*; NH(2-pyrrolidin-1-ylethyl) = C1CCN(CCN*)C1; 1Nal = N[C@@H](Cc1cccc2ccccc12)C(=O)O; d1Nal = N[C@H](Cc1cccc2ccccc12)C(=O)O; NMeY = CN[C@@H](Cc1ccc(O)cc1)C(=O)O; NMeL = CN[C@@H](CC(C)C)C(=O)O; Nicotinoyl = O=C(c1cccnc1)*; Sar = CNCC(=O)O

MOLECULE	LHRH Antagonist Activity (pA2)
CC(C)C[C@H](NC(=O)[C@@H](CCCCNC(=O)c1cccnc1)NC(=O)[C@H](Cc1ccc(O)cc1)N(C)C(=O)[C@H](CO)NC(=O)[C@@H](Cc1cccc2ccccc12)NC(=O)CCc1ccc(F)cc1)C(=O)NCCN1CCCC1 [Example 1] ({Propanoyl(3-(4-F-phenyl))}-[d1Nal]S[NMeY][dK](Nicotinoyl)L-{NH(2-pyrrolidin-1-ylethyl)})	9.91
CC(C)C[C@H](NC(=O)[C@@H](CCCCNC(=O)c1cccnc1)NC(=O)[C@H](Cc1ccc(O)cc1)N1CC[C@H](NC(=O)[C@@H](Cc2cccc3ccccc23)NC(=O)CCc2ccc(F)cc2)C1=O)C(=O)NCCN1CCCC1 [Example 19]	7.89
CC(C)C[C@H](NC(=O)[C@@H](CCCCNC(=O)c1cccnc1)NC(=O)[C@H](Cc1ccc(O)cc1)NC(=O)[C@H](CO)NC(=O)[C@@H](Cc1cccc2ccccc12)NC(=O)CCc1ccc(F)cc1)C(=O)NCCN1CCCC1 [Example 7] ({Propanoyl(3-(4-F-phenyl))}-[d1Nal]SY[dK](Nicotinoyl)L-{NH(2-pyrrolidin-1-ylethyl)})	9.73
CC(C)C[C@H](NC(=O)[C@@H](CCCCNC(=O)c1cccnc1)NC(=O)CN(C)C(=O)[C@H](CO)NC(=O)[C@@H](Cc1cccc2ccccc12)NC(=O)CCc1ccc(F)cc1)C(=O)NCCN1CCCC1 [Example 3] ({Propanoyl(3-(4-F-phenyl))}-[d1Nal]S[Sar][dK](Nicotinoyl)L-{NH(2-pyrrolidin-1-ylethyl)})	7.66
CC(C)C[C@H](NC(=O)[C@@H](CCCCNC(=O)c1cccnc1)NC(=O)[C@H](Cc1ccc(O)cc1)N(C)C(=O)[C@@H]1CCCN1C(=O)[C@@H](Cc1cccc2ccccc12)NC(=O)CCc1ccc(F)cc1)C(=O)NCCN1CCCC1 [Example 16] ({Propanoyl(3-(4-F-phenyl))}-[d1Nal]P[NMeY][dK](Nicotinoyl)L-{NH(2-pyrrolidin-1-ylethyl)})	8.71
CC(C)C[C@H](NC(=O)[C@@H](CCCCNC(=O)c1cccnc1)NC(=O)[C@H](Cc1ccc(O)cc1)N(C)C(=O)[C@H](CO)NC(=O)[C@H](Cc1cccc2ccccc12)NC(=O)CCc1ccc(F)cc1)C(=O)NCCN1CCCC1 [Example 14] ({Propanoyl(3-(4-F-phenyl))}-[1Nal]S[NMeY][dK](Nicotinoyl)L-{NH(2-pyrrolidin-1-ylethyl)})	8.68
CC(C)C[C@@H](C(=O)NCCN1CCCC1)N(C)C(=O)CNC(=O)[C@H](Cc1ccc(O)cc1)N(C)C(=O)[C@H](CO)NC(=O)[C@@H](Cc1cccc2ccccc12)NC(=O)CCc1ccc(F)cc1 [Example 8] ({Propanoyl(3-(4-F-phenyl))}-[d1Nal]S[NMeY]G[NMeL]-{NH(2-pyrrolidin-1-ylethyl)})	9.00
CC(C)C[C@H](NC(=O)[C@@H](Cc1ccccc1)NC(=O)[C@H](Cc1ccc(O)cc1)N(C)C(=O)[C@H](CO)NC(=O)[C@@H](Cc1c[nH]c2ccccc12)NC(=O)CCc1ccc(F)cc1)C(=O)NCCN1CCCC1 [Example 15] ({Propanoyl(3-(4-F-phenyl))}-[dW]S[NMeY][dF]L-{NH(2-pyrrolidin-1-ylethyl)})	8.59

* * *

LHRH Antagonist Activity (pA2) listing for selected compounds.
SYSTEM_TESTED: LH release from rat pituitary cells (Rattus norvegicus)
PROTOCOL_DETAILS: in vitro inhibition of LH release from rat pituitary cells (pA2, vs agonist leuprolide)
Format: cell-based
CONDITION_DESCRIPTION: negative logarithm of antagonist concentration required to shift the response curve produced by agonist leuprolide to two-fold higher concentration
Where a SMILES comes first, the peptide text is derived from it. [ ]: non-standard residue; d: D form. The star is where a group is joined. Propanoyl(3-(4-F-phenyl)) = O=C(CCc1ccc(F)cc1)*; NH(2-pyrrolidin-1-ylethyl) = C1CCN(CCN*)C1; dBip = N[C@H](Cc1ccc(-c2ccccc2)cc1)C(=O)O; d1Nal = N[C@H](Cc1cccc2ccccc12)C(=O)O; NMeY = CN[C@@H](Cc1ccc(O)cc1)C(=O)O; Nicotinoyl = O=C(c1cccnc1)*

COMPOUND	SYSTEM_TESTED	LHRH Antagonist Activity (pA2)
CC(C)C[C@H](NC(=O)[C@@H](CCCCNC(=O)c1cccnc1)NC(=O)[C@H](Cc1ccc(O)cc1)N(C)C(=O)[C@H](CO)NC(=O)[C@@H](Cc1ccc(-c2ccccc2)cc1)NC(=O)CCc1ccc(F)cc1)C(=O)NCCN1CCCC1 [Example 11] ({Propanoyl(3-(4-F-phenyl))}-[dBip]S[NMeY][dK](Nicotinoyl)L-{NH(2-pyrrolidin-1-ylethyl)})	LH release from rat pituitary cells (Rattus norvegicus)	7.62
CC(C)C[C@H](NC(=O)CNC(=O)[C@H](Cc1ccc(O)cc1)N(C)C(=O)[C@H](CO)NC(=O)[C@@H](Cc1cccc2ccccc12)NC(=O)CCc1ccc(F)cc1)C(=O)NCCN1CCCC1 [Example 2] ({Propanoyl(3-(4-F-phenyl))}-[d1Nal]S[NMeY]GL-{NH(2-pyrrolidin-1-ylethyl)})	LH release from rat pituitary cells (Rattus norvegicus)	9.14
CC(C)C[C@H](NC(=O)[C@@H](CCCCNC(=O)c1cccnc1)NC(=O)[C@H](Cc1ccc(O)cc1)N(C)C(=O)[C@H](CO)NC(=O)[C@@H](Cc1c[nH]c2ccccc12)NC(=O)CCc1ccc(F)cc1)C(=O)NCCN1CCCC1 [Example 10] ({Propanoyl(3-(4-F-phenyl))}-[dW]S[NMeY][dK](Nicotinoyl)L-{NH(2-pyrrolidin-1-ylethyl)})	LH release from rat pituitary cells (Rattus norvegicus)	8.69

* * *

LHRH Antagonist Activity (pA2) listing for selected compounds.
SYSTEM_TESTED: LH release from rat pituitary cells (Rattus norvegicus)
PROTOCOL_DETAILS: in vitro inhibition of LH release from rat pituitary cells (pA2, vs agonist leuprolide)
Format: cell-based
CONDITION_DESCRIPTION: negative logarithm of antagonist concentration required to shift the response curve produced by agonist leuprolide to two-fold higher concentration
Where a SMILES comes first, the peptide text is derived from it. [ ]: non-standard residue; d: D form. The star is where a group is joined. Propanoyl(3-(4-F-phenyl)) = O=C(CCc1ccc(F)cc1)*; NH(2-pyrrolidin-1-ylethyl) = C1CCN(CCN*)C1; d1Nal = N[C@H](Cc1cccc2ccccc12)C(=O)O; NMeY = CN[C@@H](Cc1ccc(O)cc1)C(=O)O; Tic = O=C(O)[C@@H]1Cc2ccccc2CN1; NMeL = CN[C@@H](CC(C)C)C(=O)O; Nicotinoyl = O=C(c1cccnc1)*

COMPOUND	LHRH Antagonist Activity (pA2)
CC(C)C[C@H](NC(=O)[C@@H](CCCCNC(=O)c1cccnc1)NC(=O)[C@H](Cc1ccc(O)cc1)N(C)C(=O)CNC(=O)[C@@H](Cc1cccc2ccccc12)NC(=O)CCc1ccc(F)cc1)C(=O)NCCN1CCCC1 [Example 6] ({Propanoyl(3-(4-F-phenyl))}-[d1Nal]G[NMeY][dK](Nicotinoyl)L-{NH(2-pyrrolidin-1-ylethyl)})	8.90
CC(C)C[C@@H](C(=O)NCCN1CCCC1)N(C)C(=O)CNC(=O)[C@H](Cc1ccc(O)cc1)N(C)C(=O)CNC(=O)[C@@H](Cc1cccc2ccccc12)NC(=O)CCc1ccc(F)cc1 [Example 9] ({Propanoyl(3-(4-F-phenyl))}-[d1Nal]G[NMeY]G[NMeL]-{NH(2-pyrrolidin-1-ylethyl)})	7.72
CC(C)C[C@H](NC(=O)[C@@H](CCCCNC(=O)c1cccnc1)NC(=O)[C@@H]1Cc2ccccc2CN1C(=O)[C@H](CO)NC(=O)[C@@H](Cc1cccc2ccccc12)NC(=O)CCc1ccc(F)cc1)C(=O)NCCN1CCCC1 [Example 17] ({Propanoyl(3-(4-F-phenyl))}-[d1Nal]S[Tic][dK](Nicotinoyl)L-{NH(2-pyrrolidin-1-ylethyl)})	9.32
